Sourced from paper PMC8809517

Target: T1, GFP-9S library array, motif 4 ND N98P;D124Y (synthetic construct, N98P;D124Y)
T1 chain: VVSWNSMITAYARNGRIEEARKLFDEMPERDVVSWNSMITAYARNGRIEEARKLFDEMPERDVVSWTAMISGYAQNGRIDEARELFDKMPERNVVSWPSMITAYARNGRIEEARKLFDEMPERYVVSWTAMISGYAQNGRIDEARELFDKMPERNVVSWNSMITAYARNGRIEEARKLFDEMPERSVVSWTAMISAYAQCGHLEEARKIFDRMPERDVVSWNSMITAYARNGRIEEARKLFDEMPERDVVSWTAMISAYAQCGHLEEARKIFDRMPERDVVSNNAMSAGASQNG
Assay: high-throughput RNA pulldown from lysate on Ni-NTA beads; HRP: 50 mM Tris pH 8, 150 mM NaCl, 1 mM beta-mercaptoethanol, 50 ug/ml BSA, 3 ug/ml yeast RNA, 0.5% heparin; ITC and FP: Tris pH 8, 200 mM KCl, 5% glycerol; MST: 50 mM Tris pH 8, 200 mM NaCl, 1 mM DTT, BSA, heparin, 0.05% Tween 20
Settings: tags: N-terminal His-eGFP; label: 5' IRDye 800CW
Below: a set of entries, each annotated with reported Kd.
PROPERTY NAME: Kd (nM)

INSERT INTO results (binder, property_name, result_unit, test_value) VALUES
  ('AUUAUACGUGA (ssRNA) [IR-rpoA-U]', 'Kd', 'nM', 299),
  ('AUUAAACGUGA (ssRNA) [IR-rpoA-A]', 'Kd', 'nM', 416);
